- target of assay: T1, ZFP SBS#1427 (synthetic)
- T1 chain: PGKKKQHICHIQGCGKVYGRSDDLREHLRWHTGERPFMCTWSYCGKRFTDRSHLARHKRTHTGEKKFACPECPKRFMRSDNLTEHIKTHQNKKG
- assay remarks: EMSA
- applied conditions: tags: MBP fusion
assay readout: pKd
Notebook: values listed as pKd are -log10 of the concentration (mol/L).

### Prompt For CAGGGCCCG (dsDNA) DNA 1: CAGGGCCCG DNA 2: CGGGCCCTG , what is its reported pKd?
### Response 9.57
